The entries below are paired with their reported kon.
study system: T1, cynomolgus Gal10-His (WGS isoform) (cynomolgus)
T1 construct: also called cynomolgus antigen
assay details: SPR Biacore 3000, hFab on cynomolgus Gal10-His (WGS) captured by anti-His CM5

// solved cases for kon follow
{"binder": "g24F02 (human Fab) (Fab, V domains shown, Human Fab backbone (human CH1, human lambda CL); also called germlined 24F02) VH: EVQLLESGGGLVQPGGSLRLSCAASGFTFSSYAMSWVRQAPGKGLEWVSAINNGGGSTSYADSVKGRFTISRDNSKNTLYLQMNSLRAEDTAVYYCAKGLRVGVLGFDYWGQGTLVTVSS VL: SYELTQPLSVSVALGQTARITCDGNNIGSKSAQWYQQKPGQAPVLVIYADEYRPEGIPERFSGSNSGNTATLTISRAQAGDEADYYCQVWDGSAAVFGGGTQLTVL", "result": "1.4e+06 M⁻¹ s⁻¹"}
{"binder": "g7B07_N53A (human Fab) (Fab, V domains shown, VH assembled by inference as for g7B07; Human Fab backbone; also called g7B07_N53A (mean)) VH: EVQLLESGGGLVQPGGSLRLSCAASGFTFRSYDMSWVRQAPGKGLEWVSAIKAGGGITYYADSVKGRFTISRDNSKNTLYLQMNSLRAEDTAVYYCATTHGIGTLGFGSWGQGTLVTVSS VL: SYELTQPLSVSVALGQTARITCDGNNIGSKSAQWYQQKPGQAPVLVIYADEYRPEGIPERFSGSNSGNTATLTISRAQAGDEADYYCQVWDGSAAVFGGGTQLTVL", "result": "510000 M⁻¹ s⁻¹"}
{"binder": "g24F02_N53A (human Fab) (Fab, V domains shown, Human Fab backbone: human CH1 and human lambda constant domain (pUPEX vectors); also called g24F02_N53A_2W) VH: EVQLLESGGGLVQPGGSLRLSCAASGFTFSSYAMSWVRQAPGKGLEWVSAINAGGGSTSYADSVKGRFTISRDNSKNTLYLQMNSLRAEDTAVYYCAKGLRVGVLGFDYWGQGTLVTVSS VL: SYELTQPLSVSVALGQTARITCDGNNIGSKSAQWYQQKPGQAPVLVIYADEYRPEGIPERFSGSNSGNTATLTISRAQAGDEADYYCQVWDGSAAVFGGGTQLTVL", "result": "1.1e+06 M⁻¹ s⁻¹"}

**Query** # input binder: g23H09 (Fab) (Fab, V domains shown, same VH/VL) VH: EVQLLESGGGLVQPGGSLRLSCAASGFTFRSYDMSWVRQAPGKGLEWVSAIAQFQHWTYYADSVKGRFTISRDNSKNTLYLQMNSLRAEDTAVYYCATTHGIGTLGFGSWGQGTLVTVSS VL: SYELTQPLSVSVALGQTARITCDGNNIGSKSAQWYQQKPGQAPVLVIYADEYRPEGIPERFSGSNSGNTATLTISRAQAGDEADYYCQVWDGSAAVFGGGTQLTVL ; wanted: its kon
**Result** 950000 M⁻¹ s⁻¹
